What Plant response rating, Corn was measured for each of the following?
- Tested on: corn (Zea mays)
- ASSAY NAME: Test B pre-/postemergence plant response
- Assay type: in vivo
- TEST CONTEXT: Postemergence, 31 g ai/ha; scale 0 to 100, 0 no effect, 100 complete control

Could you share which Plant response rating, Corn value was measured for Cc1cc(-c2ccc(Cl)cc2)nn1-c1c(OC(=O)CC(C)C)cnn(C)c1=O ?
100

Could you share which Plant response rating, Corn value was measured for Cc1cc(-c2ccc(C(F)(F)F)c(F)c2)nn1-c1c(O)c(C(F)(F)F)nn(C)c1=O ?
95

Could you share which Plant response rating, Corn value was measured for Cc1cc(-c2ccc(Br)cc2)nn1-c1c(OC(=O)C2CC2)cnn(C)c1=O ?
90

Could you share which Plant response rating, Corn value was measured for Cc1cc(-c2ccc(Cl)cc2)nn1-c1c(OC(=O)c2ccccc2Cl)cnn(C)c1=O ?
100

Could you share which Plant response rating, Corn value was measured for CCc1cc(-c2ccc(Cl)cc2)nn1-c1c(O)cnn(C)c1=O ?
100

Could you share which Plant response rating, Corn value was measured for Cc1nn(C)c(=O)c(-n2nc(-c3ccc(Cl)cc3)cc2C)c1O ?
90

###

What Plant response rating, Blackgrass was measured for each of the following?
- Tested on: blackgrass (Alopecurus myosuroides)
- ASSAY NAME: Test B pre-/postemergence plant response
- Format: in vivo
- TEST CONTEXT: Postemergence, 31 g ai/ha; scale 0 to 100
Format: numeric value only, no unit, no commentary.

Could you share which Plant response rating, Blackgrass value was measured for CCc1cc(-c2ccc(Br)cc2)nn1-c1c(O)cnn(CC(F)(F)F)c1=O [Compound 73] ?
100

Could you share which Plant response rating, Blackgrass value was measured for CCc1cc(-c2ccc(C(F)(F)F)cc2)nn1-c1c(O)c(OC)nn(C)c1=O [Compound 66] ?
100

Could you share which Plant response rating, Blackgrass value was measured for CCc1c(C)c(-c2ccc(Br)cc2)nn1-c1c(O)cnn(C)c1=O [Compound 83] ?
95

Could you share which Plant response rating, Blackgrass value was measured for CCCc1cc(-c2ccc(C(F)(F)F)cc2)nn1-c1c(O)cnn(C)c1=O [Compound 72] ?
98

Could you share which Plant response rating, Blackgrass value was measured for CCCC(=O)Oc1cnn(C)c(=O)c1-n1nc(-c2ccc(Cl)cc2)cc1C [Compound 56] ?
95

###

- System: bermudagrass (Cynodon dactylon)
- ASSAY NAME: Test B pre-/postemergence plant response
- Type: in vivo
- TEST CONTEXT: Preemergence, 31 g ai/ha; 0 to 100 scale, 0 no effect, 100 complete control
Give criterion met when the value for Plant response rating, Bermudagrass is at least 80. Give criterion not met when it is less.

Given Cc1cc(-c2ccc(Cl)cc2)nn1-c1c(OS(=O)(=O)c2ccc(Cl)s2)cnn(C)c1=O , state whether its Plant response rating, Bermudagrass is at least 80.
criterion met

Given Cc1ccc(-c2ccc(Cl)cc2)cc1-c1c(O)cnn(C)c1=O , state whether its Plant response rating, Bermudagrass is at least 80.
criterion met

Given CCOC(=O)Oc1cnn(C)c(=O)c1-n1nc(-c2ccc(Cl)cc2)cc1C , state whether its Plant response rating, Bermudagrass is at least 80.
criterion not met

Given Cc1nn(C)c(=O)c(-n2nc(-c3ccc(Cl)cc3)cc2C)c1O , state whether its Plant response rating, Bermudagrass is at least 80.
criterion met

Given CCCc1cc(-c2ccc(Cl)cc2)nn1-c1c(O)cnn(C)c1=O , state whether its Plant response rating, Bermudagrass is at least 80.
criterion not met
